# Test system: Fusarium oxysporum
# measurement_notes: Fungal growth inhibition, treated disc on agar (FUS OXY)
# Assay type: cell-based
# condition_parameters: disc dipped in 500 mg/l, 29° C.
Outcome: class 1 for Percent Growth Inhibition, FUS OXY of at least 60%; class 0 for anything lower.

Challenge: Could you verify whether the entry N#CC(CCCc1ccc(Cl)cc1)(CC1CC1)c1ccccn1 (stereo not shown) [Compound 32] shows Percent Growth Inhibition, FUS OXY of no less than 60%?
Response given: class 1

Challenge: Could you verify whether the entry CCCCC(C#N)(CCc1ccc(OC)cc1)c1ccccn1 (stereo not shown) [Compound 27] shows Percent Growth Inhibition, FUS OXY of no less than 60%?
Response given: class 0

Challenge: Could you verify whether the entry CCCCC(C#N)(CCc1ccc(OCCC)cc1)c1cccnc1 (stereo not shown) [Compound 69] shows Percent Growth Inhibition, FUS OXY of no less than 60%?
Response given: class 0

Challenge: Could you verify whether the entry CCCCCC(C#N)(CCc1ccc(OC)cc1)c1ccccn1 (stereo not shown) [Compound 30] shows Percent Growth Inhibition, FUS OXY of no less than 60%?
Response given: class 1

Challenge: Could you verify whether the entry COc1ccc(CCC(C#N)(CC(C)C)c2ccccn2)cc1 (stereo not shown) [Compound 29] shows Percent Growth Inhibition, FUS OXY of no less than 60%?
Response given: class 1

Challenge: Could you verify whether the entry CCCCC(C#N)(CCc1ccc(OCC)cc1)c1cccnc1 (stereo not shown) [Compound 35] shows Percent Growth Inhibition, FUS OXY of no less than 60%?
Response given: class 0

Challenge: Could you verify whether the entry C=CCC(C#N)(CCc1ccc(OC)cc1)c1ccccn1 (stereo not shown) [Compound 28] shows Percent Growth Inhibition, FUS OXY of no less than 60%?
Response given: class 1

Challenge: Could you verify whether the entry CCCCC(C#N)(CCc1ccc(OC)cc1)c1ccccn1 (stereo not shown) [Compound 31] shows Percent Growth Inhibition, FUS OXY of no less than 60%?
Response given: class 1

Challenge: Could you verify whether the entry CC(C)CCC(C#N)(CCc1ccc(F)cc1)c1cccnc1 (stereo not shown) [Compound 55] shows Percent Growth Inhibition, FUS OXY of no less than 60%?
Response given: class 1

Challenge: Could you verify whether the entry CCCCC(C#N)(CCc1ccc(OCC)cc1)c1cccnc1.Cl (stereo not shown) [Compound 42] shows Percent Growth Inhibition, FUS OXY of no less than 60%?
Response given: class 1

---

# Tested on: Helminthosporium sativum
# measurement_notes: Barley spot blotch, foliar treatment (HEL SAT)
# Format: in vivo
# condition_parameters: Helminthosporium, foliar, 216 h, foliar, 1,000 mg/l, read-out: Percent Reduction of Disease, HEL SAT
Please provide measured pest or weed control at 1000 µg/mL for the entries that follow.
Answer format: numeric, % implied, no suffix.

pest or weed control at 1000 µg/mL reported for this compound CCCC(C#N)(Cc1ccc(Oc2ccccc2)cc1)c1cccnc1 (stereo not drawn) : 0

pest or weed control at 1000 µg/mL reported for this compound CCCCC(C#N)(CCc1ccccc1F)c1cccnc1 (stereo not drawn) : 100

pest or weed control at 1000 µg/mL reported for this compound CCCCCC(C#N)(CCc1ccccc1)c1cccnc1 (stereo not drawn) : 100

pest or weed control at 1000 µg/mL reported for this compound Cc1ccc(CCC(C#N)(CCCC(F)(F)F)c2cccnc2)cc1 (stereo not drawn) : 100

pest or weed control at 1000 µg/mL reported for this compound CCCCC(C#N)(CCc1ccccc1)c1ccncc1 (stereo not drawn) : 0

pest or weed control at 1000 µg/mL reported for this compound N#CC(CCc1ccc(F)cc1)(CCC(F)(F)F)c1cccnc1 (stereo not drawn) : 90

pest or weed control at 1000 µg/mL reported for this compound CCOc1ccc(CCC(C#N)(CC(C)C)c2cccnc2)cc1 (stereo not drawn) : 100

pest or weed control at 1000 µg/mL reported for this compound N#CC(CCc1ccccc1)(CCc1ccccc1)c1cccnc1 [A, reference compound] : 60

pest or weed control at 1000 µg/mL reported for this compound C=CCC(C#N)(CCc1ccc(OCC)cc1)c1cccnc1 (stereo not drawn) : 100

pest or weed control at 1000 µg/mL reported for this compound CCCCCC(C#N)(CCc1ccc(F)cc1)c1cccnc1 (stereo not drawn) : 90

pest or weed control at 1000 µg/mL reported for this compound C=CCC(C#N)(CCc1ccccc1F)c1cccnc1 (stereo not drawn) : 100

pest or weed control at 1000 µg/mL reported for this compound CCCCC(C#N)(CCc1ccccc1C(F)(F)F)c1cccnc1 (stereo not drawn) : 100

pest or weed control at 1000 µg/mL reported for this compound C#CCC(C#N)(CCc1ccc(F)cc1)c1cccnc1 (stereo not drawn) : 100

pest or weed control at 1000 µg/mL reported for this compound COCC(C#N)(CCc1ccc(OC)cc1)c1cccnc1 (stereo not drawn) : 100

pest or weed control at 1000 µg/mL reported for this compound N#CC(CCCF)(CCc1ccccc1F)c1cccnc1 (stereo not drawn) : 100

pest or weed control at 1000 µg/mL reported for this compound CCCCC(C#N)(CCc1ccc(OCCF)cc1)c1cccnc1 (stereo not drawn) : 100

pest or weed control at 1000 µg/mL reported for this compound CCCCC(C#N)(CCc1ccc(F)cc1)c1cccnc1 (stereo not drawn) : 100

pest or weed control at 1000 µg/mL reported for this compound CCCCCCC(C#N)(CCc1ccc(OCC)cc1)c1cccnc1 (stereo not drawn) : 100

pest or weed control at 1000 µg/mL reported for this compound CCCCC(C#N)(CCCc1ccc(Cl)cc1)c1cccnc1 (stereo not drawn) : 100

pest or weed control at 1000 µg/mL reported for this compound CC(C)(C)c1ccc(CC(C#N)(Cc2ccc(C(C)(C)C)cc2)c2cccnc2)cc1 [B, reference compound] : 0

pest or weed control at 1000 µg/mL reported for this compound C=CCC(C#N)(CCCc1ccccc1OC)c1cccnc1 (stereo not drawn) : 100

pest or weed control at 1000 µg/mL reported for this compound CCCC(C#N)(Cc1ccc(C(C)(C)C)cc1)c1cccnc1 (stereo not drawn) : 60

pest or weed control at 1000 µg/mL reported for this compound CC(C)CC(C#N)(CCc1ccccc1)c1cccnc1 (stereo not drawn) : 70

pest or weed control at 1000 µg/mL reported for this compound N#CC(CCF)(CCc1ccc(F)cc1)c1cccnc1 (stereo not drawn) : 90

pest or weed control at 1000 µg/mL reported for this compound N#CC(CCCF)(CCc1ccc(F)cc1)c1cccnc1 (stereo not drawn) : 85

pest or weed control at 1000 µg/mL reported for this compound CCCCCCCC(C#N)(CCc1ccccc1)c1cccnc1 (stereo not drawn) : 80

pest or weed control at 1000 µg/mL reported for this compound CCCCCCC(C#N)(CCc1ccc(F)cc1)c1cccnc1 (stereo not drawn) : 100

pest or weed control at 1000 µg/mL reported for this compound CCCCC(C#N)(CCCc1ccc(OC)cc1)c1cccnc1 (stereo not drawn) : 100

pest or weed control at 1000 µg/mL reported for this compound COc1ccc(CCC(C#N)(CC=C(C)C)c2cccnc2)cc1 (stereo not drawn) : 100

pest or weed control at 1000 µg/mL reported for this compound CC(C)=CCC(C#N)(CCc1ccc(F)cc1)c1cccnc1 (stereo not drawn) : 100

pest or weed control at 1000 µg/mL reported for this compound CCCCC(C#N)(CCc1ccc(OCC)cc1)c1cccnc1 (stereo not drawn) : 100

pest or weed control at 1000 µg/mL reported for this compound COCC(C#N)(CCc1ccccc1)c1cccnc1 (stereo not drawn) : 100

pest or weed control at 1000 µg/mL reported for this compound CCCCCCC(C#N)(CCc1ccc(OC)cc1)c1cccnc1 (stereo not drawn) : 100

pest or weed control at 1000 µg/mL reported for this compound C#CCC(C#N)(CCc1ccccc1)c1cccnc1 (stereo not drawn) : 0

pest or weed control at 1000 µg/mL reported for this compound COc1ccc(CCC(C#N)(CC2CC2)c2cccnc2)cc1 (stereo not drawn) : 100

pest or weed control at 1000 µg/mL reported for this compound CCCC(C#N)(CCc1ccccc1)c1ccncc1 (stereo not drawn) : 0

pest or weed control at 1000 µg/mL reported for this compound CCCCOc1ccc(CCC(C#N)(CC(C)C)c2cccnc2)cc1 (stereo not drawn) : 0

pest or weed control at 1000 µg/mL reported for this compound CCCC(C#N)(CCc1ccc(OCC)cc1)c1cccnc1 (stereo not drawn) : 100

pest or weed control at 1000 µg/mL reported for this compound CCCC(C#N)(CCc1ccc(F)cc1)c1cccnc1 (stereo not drawn) : 100

pest or weed control at 1000 µg/mL reported for this compound CCCC(C#N)(CCCc1ccc(Cl)cc1)c1cccnc1 (stereo not drawn) : 100

pest or weed control at 1000 µg/mL reported for this compound C=CCC(C#N)(CCc1ccc(C)cc1)c1cccnc1 (stereo not drawn) : 100

pest or weed control at 1000 µg/mL reported for this compound N#CC(CCc1ccc(F)cc1)(CC(F)(F)F)c1cccnc1 (stereo not drawn) : 100
